Test system: CD2F1 mice, L1210 leukemia ip, survival T/C
Test: NCI In Vivo Anticancer Drug Screen. Data for tumor model L1210 Leukemia (intraperitoneal) in CD2F1 (CDF1) mice
Conditions: endpoint: mean survival time; dose: 100.0 mg/kg/injection; schedule: Q01DX009 (ip); vehicle: saline with Tween-80; higher = longer survival
Inconclusive results and toxic doses are left out.
Measured T/C of individual entries

Input line: Form: Entry = Cc1ccc([Si](OO[Si](c2ccccc2)(c2ccccc2)c2ccc(C)cc2)(c2ccccc2)c2ccccc2)cc1 | System = CD2F1 mice, L1210 leukemia ip, survival T/C | T/C = ____
Output line: 98 % of control

Input line: Form: Entry = Clc1ccc(CSCc2ccc(Cl)cc2Cl)c(Cl)c1 | System = CD2F1 mice, L1210 leukemia ip, survival T/C | T/C = ____
Output line: 96 % of control

Input line: Form: Entry = CCOC(=O)CC1c2nc3ccccc3cc2CN1C(=O)CCOC(C)=O (centres undefined) | System = CD2F1 mice, L1210 leukemia ip, survival T/C | T/C = ____
Output line: 95 % of control

Input line: Form: Entry = C/C=C1/CN2[C@H]3C[C@@]45c6ccccc6N[C@@H]4[C@@H]2C[C@H]1[C@@]3(C(=O)OC)[C@H]5O | System = CD2F1 mice, L1210 leukemia ip, survival T/C | T/C = ____
Output line: 91 % of control

Input line: Form: Entry = CC(C)(C)NC(=O)CCC(CC(=O)NC(C)(C)C)C1([N+](=O)[O-])CCCCC1 (centres undefined) | System = CD2F1 mice, L1210 leukemia ip, survival T/C | T/C = ____
Output line: 92 % of control

Input line: Form: Entry = Nc1ccc(C(=O)Oc2ccc([N+](=O)[O-])cc2)cc1 | System = CD2F1 mice, L1210 leukemia ip, survival T/C | T/C = ____
Output line: 108 % of control

Input line: Form: Entry = CCOC(=O)NC1CC(OC(=O)c2ccc(C)cc2)C(COC(=O)c2ccc(C)cc2)O1 (centres undefined) | System = CD2F1 mice, L1210 leukemia ip, survival T/C | T/C = ____
Output line: 95 % of control

Input line: Form: Entry = COc1ccc(OC)c(C(=O)CC(O)(C(F)(F)F)C(F)(F)F)c1 | System = CD2F1 mice, L1210 leukemia ip, survival T/C | T/C = ____
Output line: 97 % of control

Input line: Form: Entry = CCCCCCCCC/C=C(/CC(=O)O)C(=O)O | System = CD2F1 mice, L1210 leukemia ip, survival T/C | T/C = ____
Output line: 102 % of control

---

Test system: CD2F1 mice, L1210 leukemia ip, survival T/C
Experiment: NCI In Vivo Anticancer Drug Screen. Data for tumor model L1210 Leukemia (intraperitoneal) in CD2F1 (CDF1) mice
Conditions: endpoint: mean survival time; dose: 200.0 mg/kg/injection; schedule: Q04DX003 (ip); vehicle: saline with Tween-80; higher = longer survival
Inconclusive results and toxic doses are left out.
measured-attribute: T/C

INSERT INTO assay_data (molecule, measured_attribute, observed) VALUES
  ('O=[N+]([O-])c1cc(I)c(I)c(I)c1', 'T/C', '104 % of control'),
  ('NC(=O)/C(=N/O)c1ccccc1', 'T/C', '106 % of control'),
  ('Cc1ccc(S(=O)(=O)N(O)c2ccccc2)cc1', 'T/C', '100 % of control'),
  ('NC1=NC(=O)/C(=C/c2ccccc2)S1', 'T/C', '97 % of control'),
  ('O=S(=O)(Cc1ccccc1)Cc1ccccc1', 'T/C', '103 % of control'),
  ('CCCCCCCCCCCCS(=O)(=O)O', 'T/C', '119 % of control'),
  ('Nc1ccc2cc(Cl)ccc2c1', 'T/C', '95 % of control'),
  ('O=[N+]([O-])c1ccc2c(c1)CS(=O)(=O)O2', 'T/C', '100 % of control');

Input line: Form: Entry = NC(=O)C1=C2CCCc3cccc(c32)C1=O | System = CD2F1 mice, L1210 leukemia ip, survival T/C | T/C = ____
Output line: 100 % of control

Input line: Form: Entry = CC1COC(=O)O1 (stereo not drawn) | System = CD2F1 mice, L1210 leukemia ip, survival T/C | T/C = ____
Output line: 97 % of control

Input line: Form: Entry = Cc1ccc(C(=O)c2ccc([N+](=O)[O-])cc2)cc1 | System = CD2F1 mice, L1210 leukemia ip, survival T/C | T/C = ____
Output line: 94 % of control

Input line: Form: Entry = c1ccc(CN2CN(Cc3ccccc3)CN(Cc3ccccc3)C2)cc1 | System = CD2F1 mice, L1210 leukemia ip, survival T/C | T/C = ____
Output line: 89 % of control

---

Measured T/C of individual entries
Tested on: CD2F1 mice, L1210 leukemia ip, survival T/C
Experiment: NCI In Vivo Anticancer Drug Screen. Data for tumor model L1210 Leukemia (intraperitoneal) in CD2F1 (CDF1) mice
Conditions: endpoint: mean survival time; dose: 100.0 mg/kg/injection; schedule: Q01DX009 (ip); vehicle: Klucel (hydroxypropylcellulose) (HPC); higher = longer survival
Toxic doses and inconclusive results are not listed.

INSERT INTO assay_data (compound, target_system, observed) VALUES
  ('CC1(Br)C(Sc2ccccc2[N+](=O)[O-])=Nc2ccccc21 (configuration not stated)', 'CD2F1 mice, L1210 leukemia ip, survival T/C', '94 % of control'),
  ('CCOC(=O)CCN1C(=O)NC(C)(c2ccccc2)C1=O (configuration not stated)', 'CD2F1 mice, L1210 leukemia ip, survival T/C', '100 % of control'),
  ('CC(=O)NC(C)(NC(C)=O)C(=O)O', 'CD2F1 mice, L1210 leukemia ip, survival T/C', '98 % of control'),
  ('O=C(C(=O)c1ccc(Cl)c(Cl)c1)c1ccc(Cl)c(Cl)c1', 'CD2F1 mice, L1210 leukemia ip, survival T/C', '90 % of control'),
  ('Cc1ccc(S(=O)(=O)N2CCn3ncc(C#N)c32)cc1', 'CD2F1 mice, L1210 leukemia ip, survival T/C', '87 % of control'),
  ('CCOC(=O)c1ccc(NC(=O)c2ccc(OCCOc3ccc(C(C)(C)CC(C)(C)C)cc3)c(NC(=O)CC(=O)c3cccc([N+](=O)[O-])c3)c2)cc1', 'CD2F1 mice, L1210 leukemia ip, survival T/C', '92 % of control');

Input line: Could you share which T/C value was measured for C/C(=N\O)c1ccccn1 ?
Output line: 90 % of control

Input line: Could you share which T/C value was measured for O=C1NC(=O)c2ccccc21 ?
Output line: 102 % of control

Input line: Could you share which T/C value was measured for CCOC(=O)CC(C)(C)NCc1ccccc1 ?
Output line: 91 % of control

Input line: Could you share which T/C value was measured for Cc1cc(=O)[nH]c(=O)[nH]1 ?
Output line: 98 % of control

Input line: Could you share which T/C value was measured for CC(=O)CC(C)(C)C1CCCCC1 ?
Output line: 96 % of control

Input line: Could you share which T/C value was measured for COC(=O)C1=NNC(C(=O)OC)=C(c2ccccc2)C(c2ccccc2)=N1 ?
Output line: 101 % of control

---

Measured T/C of individual entries
System: CD2F1 mice, L1210 leukemia ip, survival T/C
Assay: NCI In Vivo Anticancer Drug Screen. Data for tumor model L1210 Leukemia (intraperitoneal) in CD2F1 (CDF1) mice
Settings: endpoint: mean survival time; dose: 50.0 mg/kg/injection; schedule: Q01DX001 (ip); vehicle: saline with Tween-80; higher = longer survival
Toxic doses and inconclusive results are not listed.

Use these answered entries as a reference point.
INSERT INTO measurements (compound, observed) VALUES
  ('[Cl][Pt+2][Cl].[NH-]Cc1ccccc1.[NH-]Cc1ccccc1', '110 % of control'),
  ('CCCCOC(=O)c1ccc(OC(=O)Nc2ccc(C)cc2[N+](=O)[O-])cc1', '109 % of control'),
  ('CCN(CC)Cc1cc(Nc2c3ccc(Cl)cc3nc3ccc(OC)nc23)ccc1O', '94 % of control');

Input line: Form: Entry = N#CC(C#N)=C(C#N)c1ccccc1 | System = CD2F1 mice, L1210 leukemia ip, survival T/C | T/C = ____
Output line: 94 % of control

Input line: Form: Entry = BrC(Br)(c1ccccc1)C1OCCO1 | System = CD2F1 mice, L1210 leukemia ip, survival T/C | T/C = ____
Output line: 107 % of control

Input line: Form: Entry = COC1OC2COC(c3ccccc3)OC2/C(=N/O)C1[n+]1ccccc1 (stereo not drawn) | System = CD2F1 mice, L1210 leukemia ip, survival T/C | T/C = ____
Output line: 107 % of control

Input line: Form: Entry = CC(=O)C1CCC2CC3CCCCC3N(C(C)=O)C2C1 (stereo not drawn) | System = CD2F1 mice, L1210 leukemia ip, survival T/C | T/C = ____
Output line: 107 % of control

Input line: Form: Entry = Cc1ncc(COP(=O)(O)O)c(C=NC(CCCCN)C(=O)O)c1O.O.[Cu] (stereo not drawn) | System = CD2F1 mice, L1210 leukemia ip, survival T/C | T/C = ____
Output line: 98 % of control
